# ASSAY_NOTES: inhibitors of poly I:C-induced TLR3 signaling, primary screen, cell-based, poly I:C stimulus, luciferase, 10K MLSCN set (AID 602277)
# STUDY_CONDITIONS: HEK293-TLR3 RL24 IRF3 luciferase reporter, at 10 µM, stronger effect = higher value
Would you mind telling me the reported inhibition of each entry?
One number for each entry, in %.

Example entries and their recorded answers appear below.
COMPOUND	RESULT
O=C1c2ccccc2C(=O)N1CNc1ccccc1	-8.22
CCc1nnc(NC(=O)CSc2nnc(-c3cc4ccccc4cc3O)n2CC)s1	11.2
CCc1nc(NCCCN2CCOCC2)c2oc3ccccc3c2n1	25.2
Cc1ccc(-c2csc3ncn(-n4c(C)ccc4C)c(=O)c23)o1	12.5
O=C(Nc1ccc(N2CCN(Cc3ccccc3Cl)CC2)cc1)c1cccnc1	-14.5

Kindly give each listed record's inhibition.
1. Cc1cc(C)n(-c2nc3c(c(=O)[nH]c(=O)n3C)n2Cc2ccc(F)cc2)n1
2. Cc1ccc(-n2cnnn2)c2cccnc12
3. COc1ccc(Cn2c(-c3ccco3)nc3oc4ccccc4c(=O)c3c2=O)cc1
4. O=C(CSc1nnc(COc2ccc(Cl)cc2)o1)N1CCN(c2ccccc2)CC1
5. Cc1nc2ccc(C(=O)c3ccccc3)cc2[nH]1
6. O=C(c1ccco1)N1CCN(c2ccc(Cl)cc2)CC1
7. CCOc1cc2[nH]c(=O)n(CCC(=O)NCCc3ccc(OC)c(OC)c3)c(=O)c2cc1OCC

1: 13.7; 2: 27.7; 3: -24.4; 4: -9; 5: -56.7; 6: -172; 7: 16.7

* * *

# ASSAY_NOTES: inhibitors of TNFa-induced NFkB p65 translocation, primary screen, imaging, HUVEC, MLSMR starter and 10KST1 sets (AID 438);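 note: compound added about 3h40 before a 20 min TNFalpha stimulation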
# STUDY_CONDITIONS: HUVEC TNFa-induced p65 nuclear translocation; measured here: nuclei count (cytotoxicity indicator), at 2.08 µM
PARAMETER_MEASURED: cell count
Give bare numbers.

MOLECULE	RESULT
COC(=O)c1sc2nc(N3CCCCC3)c3c(c2c1N)CC(C)(C)N(C)C3	365

Kindly give each listed record's cell count.
1. CN(C)c1ccc(CNCCC2(O)CCOC(C)(C)C2)cc1 (stereo not given)
2. O=S(=O)(Nc1ccc2c(c1)OCO2)c1ccc(Br)s1
3. C=CCOc1ccc(/C(O)=C2\C(=O)C(=O)N(CCN(C)C)C2c2cccs2)cc1 (stereo not given)
4. CCOC(=O)N1CCN(Cc2nc3c(c(=O)n(C)c(=O)n3C)n2Cc2ccccc2)CC1
5. C=CCn1c(SCC(=O)Nc2ccccc2OC)nnc1-c1ccco1
6. Cc1cc(=O)n2[nH]c(N3C(=O)CCC3=O)nc2n1

1. 495
2. 285
3. 642
4. 598
5. 736
6. 527

* * *

# ASSAY_NOTES: inhibitors of mutant huntingtin aggregation, primary screen, imaging, exon1htt(103Q)mCFP cells, high-content imaging (AID 483);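 note: compound exposure lasted 3 days before fixation; percent of the per-plate median nuclei count of sample wells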
# STUDY_CONDITIONS: exon1htt(103Q)mCFP cell line, aggregate imaging, at 2 µM; measured here: cell count, toxicity
PARAMETER_MEASURED: nuclei count (%)
Answers are plain numbers, in %.

Example entries and their recorded answers appear below.
COMPOUND	UNIT_LABEL	nuclei count
O=C(Nc1ccc(N2CCCCC2)cc1)c1ccc(F)cc1	%	111
COC(=O)c1ccccc1NC(=O)CC(NCc1ccccc1)C(=O)O (configuration not stated)	%	124
Cc1ccc2c(C)nc(NC3=NCN(C(C)C)CN3)nc2c1	%	93.5
COc1ccc(C)cc1S(=O)(=O)N(CC(=O)O)c1ccccc1	%	91.3
c1coc(CN(Cc2cccs2)Cc2nnnn2C2CCCCC2)c1	%	119
COc1cccc(NC(=O)N(Cc2ccco2)C(C)c2cccs2)c1 (configuration not stated)	%	103
CCOC(=O)C1C2C=CC3(CN(Cc4ccco4)C(=O)C13)O2 (configuration not stated)	%	114
CCOC(=O)c1sc(NC(=O)CSc2nnc(-c3ccc(OC)cc3)n2CCOC)nc1C	%	88.1
Cc1nn(-c2ccccc2)c(C)c1/C=N/O	%	93.7
COC(=O)c1ccccc1NC(=O)C1CC(=O)N(c2ccc(F)cc2)C1 (configuration not stated)	%	115

Kindly give each listed record's nuclei count.
1. O=C(CN1C(=O)CCS(=O)(=O)c2ccccc21)NCc1ccc(F)cc1
2. Cc1noc(C)c1CSc1ccccc1C(=O)N1CCN(c2ccccc2)CC1
3. CCc1nnc(NC(=O)c2ccc(S(=O)(=O)N(CC(C)C)CC(C)C)cc2)o1

[95.8, 95.9, 94.8]

Kindly give each listed record's nuclei count.
1. CCOC(=O)C1=C(C)N(C)C(=O)NC1c1ccccc1OC (configuration not stated)
2. COc1ccc(S(=O)(=O)Nc2ccccc2OC)cc1C
3. COc1ccc(C2C(C(=O)Nc3cccnc3)=C(C)Nc3nc(-c4cccs4)nn32)cc1OC (configuration not stated)
4. Clc1ccc(-n2nnnc2Sc2ncnc3sccc23)cc1
5. CCCC1(C(=O)OCC)NC(c2ccc(N(C)C)cc2)C2C(=O)N(c3ccc(F)cc3)C(=O)C21 (configuration not stated)

92.6
96.5
84.7
107
69.8

Kindly give each listed record's nuclei count.
1. COc1ccc(S(=O)(=O)NC(C)C(=O)Nc2cccc(C(C)=O)c2)cc1 (configuration not stated)
2. CCOC(=O)N1CCC(NC(=O)Cn2ncc3c4ccccc4n(C)c3c2=O)CC1
3. CC(C)=CC(=O)N1CCCc2ccccc21
4. CCOCCCNC(=O)CC1Oc2ccc(C)cc2NC1=O (configuration not stated)
5. COc1ccc(-n2ncc3c(N4CCN(c5cccc(C)c5C)CC4)ncnc32)cc1

97.3
98.6
84.6
107
111
